Quick reference for Cytotoxicity EC50, OCI-M2 MPL CALRdel52 cells among some binders
tgt: CALRdel52 (mutant calreticulin, 52 base pair deletion, Type 1) expressed with MPL on engineered cancer cells (UniProt P27797)
Sequence (P27797 other isoform, or with tags, fused parts or gaps mutant limits assumed): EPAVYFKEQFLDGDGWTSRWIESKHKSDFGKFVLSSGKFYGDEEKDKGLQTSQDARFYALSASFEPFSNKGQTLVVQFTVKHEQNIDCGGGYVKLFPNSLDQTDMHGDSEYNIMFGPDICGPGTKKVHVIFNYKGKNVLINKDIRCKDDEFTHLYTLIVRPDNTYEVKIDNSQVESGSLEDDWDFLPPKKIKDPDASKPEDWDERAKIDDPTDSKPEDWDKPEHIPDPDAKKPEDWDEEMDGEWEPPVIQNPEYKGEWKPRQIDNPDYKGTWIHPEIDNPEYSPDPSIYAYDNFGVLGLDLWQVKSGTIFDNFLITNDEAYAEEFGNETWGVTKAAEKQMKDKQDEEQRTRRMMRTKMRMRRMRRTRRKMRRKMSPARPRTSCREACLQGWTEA
experimental-protocol: cell-based or functional assay
measured-endpoint: Cytotoxicity EC50, OCI-M2 MPL CALRdel52 cells (µg/mL)

binder	unit-annotation	recorded-measurement
CALRB116 (MP1007 Fab x CD3W245-HL-scFv, high affinity) (bispecific antibody, part only; not given: anti-CD3 scFv arm, constant regions, V domains shown, not shown: another chain or arm of the molecule; a dimerising Fc or GST; small tags and cut ends) VH: QQLEESGGRLVAPGTPLRLTCTVSGIDLSNNAVSWVRQAPGKGLEYIGVIGNTGTTYYANWAKGRFTISKTSSTTVDLKMTSLTTDDTATYFCVRGPPSYSNSVRNIWGPGTLVTVSS VL: DPMLTQTPSSVSAAVGGTVTIGCQSSQSVYDNNWLSWYQQKPGQPPNRLIYDASKLASGVPSRFSGSGSGTQFTLTISGVKSDDAATYYCAGGYTGNVYSFGGGTMVEIK	µg/mL	0.0802
CALRB81 (MP1018 Fab x CD3W245-LH-scFv, medium affinity) (bispecific antibody, part only; not given: anti-CD3 scFv arm, constant regions, V domains shown, not shown: another chain or arm of the molecule; a dimerising Fc or GST; small tags and cut ends) VL: DVVMTQTPSSVSAAVGGTVTINCQASQSLYNNKNLAWYQQKPGQPPKLLIYYASALASGVSSRFKGSGSGTQFTLTISGVQSDDAATYYCQGEFNCNSADCNSFGGGTEVVVK VH: QSVEESGGRLVTPGTPLTITCTVSGFSLSSYAMSWVRQAPGKGLEWIGVIDSGGTTYYATWAKSRFTISKTTKVALKITSPTTEDTATYFCARESYAGYDGYGHPIPYGMDPWGPGTLVTVSS	µg/mL	0.0196
CALRB115 (MP1004 Fab x CD3W245-HL-scFv, high affinity) (bispecific antibody, part only; not given: anti-CD3 scFv arm, constant regions, V domains shown, not shown: another chain or arm of the molecule; a dimerising Fc or GST; small tags and cut ends) VH: QEQLEESGGRLVTPGTPLTLTCKVSGIDLSNNAISWVRQAPGKGLEYIGVIGNTGDTYYASWAKGRFTISKTSSTTVDLKMTSLTTEDTATYFCVRGPPSYSNSVKNIWGPGTLVTISS VL: DPMLTQTPSSVSAAVGGTVTINCQSSQSVYNNNWLSWLQQKPGQPPNRLIYDASKLESGVPSRFSGSGSGTQFTLTISGVQSDDAATYYCAGGFTGNVYTFGGGTEVVVK	µg/mL	0.0508
CALRB117 (MP1010 Fab x CD3W245-HL-scFv, high affinity) (bispecific antibody, part only; not given: anti-CD3 scFv arm, constant regions, V domains shown, not shown: another chain or arm of the molecule; a dimerising Fc or GST; small tags and cut ends) VH: QSVEESGGRLVTPGTPLTLTCTVSGIDLSNNAISWVRQAPGKGLEYIGVIGNTGDTYYASWAKGRFTISKTSSTTVDLKMTSLTTEDTATYFCVRGPPSYSNSVKNIWGPGTLVTISS VL: DPMLTQTPSSVSAAVGGTVTIGCQSSQSVYDKNWLSWYQQKPGQPPSRLIYDASKLESGVPSRFSGSGSGTQFTLTISGVQSDDVATYYCAGGFTGNVYAFGGGTEVVVK	µg/mL	0.0598
